Where do the numbers come from? From paper PMC2745946.

test: in vitro
experimental.context: mouse
measured.attribute: viability at 48 h (%)
Kindly answer with a numeric value in %, unit omitted.

Tell me the measured viability at 48 h of C[C@]12C=CC(=O)C=C1CC[C@@H]1[C@@H]2[C@@H](O)C[C@@]2(C)[C@H]1CC[C@]2(O)C(=O)CO , please. 81.6

###

test: MTT cell viability assay in C2C12 myotubes
experimental.context: mouse
measured.attribute: viability at 48 h (%)
Kindly answer with a numeric value in %, unit omitted.

Tell me the measured viability at 48 h of CC1=C(O)C(=O)C=C2C1=CC=C1[C@@]2(C)CC[C@@]2(C)[C@@H]3C[C@](C)(C(=O)O)CC[C@]3(C)CC[C@]12C , please. 72.1
